- System: HIV-1 SK1
- protocol-details: XTT cytopathicity assay, SK1
- Assay type: cell-based
- cond: Human immunodeficiency virus 1, CEM-SS
measurement-type: EC50

Note to self: EC50 recorded for O=S1(=O)C[C@H](O)[C@H](O)CS1 (relative stereo) [NSC 624151, cis-1,1-dioxo[1,2]dithiane-4,5-diol] was 22.7 µM

* * *

- measurement-target: gp120-CD4 (UniProt P01730+P03375)
- protocol-details: gp120-CD4 binding, antigen capture ELISA
- cond: read-out: gp120-CD4 ID50
measurement-type: IC50

Note to self: IC50 recorded for O=S1(=O)C[C@H](O)[C@H](O)CS1 (relative stereo) [NSC 624151, cis-1,1-dioxo[1,2]dithiane-4,5-diol] was > 100 µM

* * *

- Tested on: HIV-1NL4-3 Y181C
- protocol-details: XTT cytopathicity assay, NL4-3 site-directed RT mutant
- Type: cell-based
- cond: MT-2, NL4-3 Y181C
- Description: Initial anti-HIV screening was performed with CEM-SS cells and HIV-1RFusing the XTT cytoprotection assay as previously described (Weislow et al., J. National Cancer Inst. 81: 577-586, (1989)). HIV-1 isolates included common laboratory stains (RF, IIIB and MN), as well as a panel of HIV-1 clinical isolates (Cushman et al., J. Med. Chem. 37: 3040-3050, (1994)). […]
measurement-type: EC50

Form field EC50 for item O=S1(=O)C[C@H](O)[C@H](O)CS1 (relative stereo) [NSC 624151, cis-1,1-dioxo[1,2]dithiane-4,5-diol] on HIV-1NL4-3 Y181C: 20.9 µM

* * *

- measurement-target: HIV-1 p7NC protein (Human immunodeficiency virus type 1 group M subtype B, UniProt P04591)
- Construct: recombinant HIV-1 p7NC protein
- protocol-details: Trp37 zinc finger fluorescence assay (zinc ejection from p7NC)
- Type: biochemical
- cond: FIG. 1(A), in words
measurement-type: zinc ejection

[[record]]
compound = "CC(C)OC(=O)c1cc(NC(=S)OC(C)C)ccc1Cl [UC38, reference compound]"
measurement_target = "HIV-1 p7NC protein (Human immunodeficiency virus type 1 group M subtype B, UniProt P04591)"
observed = "do not"

[[record]]
compound = "Nc1ccn([C@H]2CC[C@@H](CO)O2)c(=O)n1 [DDC, reference compound]"
measurement_target = "HIV-1 p7NC protein (Human immunodeficiency virus type 1 group M subtype B, UniProt P04591)"
observed = "do not"

[[record]]
compound = "CSC[C@H](NC(=O)COc1cccc2cnccc12)C(=O)N[C@@H](Cc1ccccc1)[C@H](O)C(=O)N1CSC[C@H]1C(=O)NC(C)(C)C [KNI-272, reference compound]"
measurement_target = "HIV-1 p7NC protein (Human immunodeficiency virus type 1 group M subtype B, UniProt P04591)"
observed = "do not"


* * *

- Tested on: HIV-1ADA
- protocol-details: antiviral assay in monocyte-macrophage cultures (p24)
- Assay type: cell-based
- cond: Human immunodeficiency virus 1, read-out: Mo/M.PHI. EC50
pEC50: −log10 of the molar value.
measurement-type: pEC50

Solved entries:
[[record]]
compound = "OCC1(CO)CSSC1 [NSC 72270]"
measurement_type = "pEC50"
observed = "< 4.00"

[[record]]
compound = "[O-][S+]1C[C@@H](O)[C@H](O)CS1 (relative stereo) [NSC 663603]"
measurement_type = "pEC50"
observed = "< 4.00"

[[record]]
compound = "CC(=O)O[C@H]1CSSC[C@H]1OC(C)=O [NSC 667093]"
measurement_type = "pEC50"
observed = "< 4.00"

[[record]]
compound = "O[C@@H]1CSSC[C@H]1O (relative stereo) [NSC 663605]"
measurement_type = "pEC50"
observed = "< 4.00"

[[record]]
compound = "CC(=O)OCC1(COC(C)=O)CSSC1 [NSC 660167]"
measurement_type = "pEC50"
observed = "< 4.00"


Note to self: pEC50 recorded for [O-][S+]1C[C@@H](O)[C@@H](O)CS1 (relative stereo) [NSC 667090] was < 4.00

Note to self: pEC50 recorded for [O-][S+]1CC(CO)(CO)CS1 (stereo not drawn) [NSC 661753] was 4.34

Note to self: pEC50 recorded for O=S1(=O)CCCCS1 [NSC 627175] was 4.60

Note to self: pEC50 recorded for CC(=O)OCC1(COC(C)=O)CS[S+]([O-])C1 (stereo not drawn) [NSC 661754] was < 4.00

Note to self: pEC50 recorded for CC(=O)OCC1(COC(C)=O)CSS(=O)(=O)C1 [NSC 661126] was 4.68

Note to self: pEC50 recorded for CC(=O)O[C@@H]1CS[S+]([O-])C[C@H]1OC(C)=O (relative stereo) [NSC 667094] was 5.26

Note to self: pEC50 recorded for O[C@@H]1CSSC[C@@H]1O [NSC 667089] was < 4.00

Note to self: pEC50 recorded for CC(=O)O[C@H]1CSS(=O)(=O)C[C@H]1OC(C)=O (relative stereo) [NSC 667091] was 4.60

Note to self: pEC50 recorded for CC(=O)O[C@@H]1CSSC[C@H]1OC(C)=O (relative stereo) [NSC 667092] was < 4.00

Note to self: pEC50 recorded for [O-][S+]1CCCCS1 (stereo not drawn) [NSC 56224] was < 4.00

Source of measurements: patent US6046228A
